Assay: yeast display, Sf9 membrane polyspecificity reagent, FACS + sequencing; frameworks hold sequencing errors
MEASURED METRIC: polyreactivity (PSR sort gate)

INSERT INTO results (sequence_entry, result) VALUES
  ('QVQLVESAGGLVQAGGSLRLSCDASGRTFRYYVMGWYRQAPGNERELVAAISWSGCRTNYADSVKGRYTISGDNAKNTVYLQMNSLKPEDSAVYYCNAPRPALRRYDYWGQGTQVTVSS', 'high polyreactivity'),
  ('QVQLVESGGGLVQAGGSLRLSCAASGRIFYWYAMGWYRQAPGKERELVATINSGGSTTYADSVKGRFTISRDNAKNTVYLQMNSLKPEDTAVYYCARQRTVKKYYYWGQGTQVTVSS', 'high polyreactivity'),
  ('QVQLVESGGGLVQAGGSLRLSCAASGRTIPFYAMGWYRQAPGKERELVAAISSSAGRTYYADSVKGRFSISRDNAKNTVYLQLNSLKPEDTAVYYCAARLYCRYRYDYWGQGTQVTVSS', 'low polyreactivity'),
  ('QVQLVESGGGLVQAGGSLRLSCAASGSIFSYYAMGWYRPAPGKERELVAAISKRGPSTYYADSVKGRFTISRDNAKNSVYLLMNSLKPEDTAVYYCAAKYSRRSSVSYYYWGQGTQVTVSS', 'high polyreactivity'),
  ('QVQLVETGGGLVQAGGSLRLSCAASGLILGGYAMGWYRQAHGKERELVAAITRGGGSTFYADSVKGRFTISRDNAKNTVYLQMNSLKPEDTAVYYCAKRYPYRPPGPRYRGLSGYVYWGQGTQVTVSS', 'high polyreactivity'),
  ('QVQLVESGGGLVHAAGSLRLSCAASGRTFRYNTMGWYRQASGKESELVARITRSGGSTYYADSVKGRFTISRDNAKNTVYLQMNSLKPEDTAVYYCAAVPILVYRWFQYYTGDYDYWGQGTQVTVSS', 'low polyreactivity'),
  ('QVQLVESCGGLVQAGGSLRLSCAATGRIFAGYVMGWYRPAHGKERELVAAISWRGGRTYYADSVKGRFTISRDNAKNTVYLQMISLKPEDTAVYYCNAPYAVGNPADDYWGQGTQVTVSS', 'high polyreactivity'),
  ('QVQLVESGGGLLQAGGSLRLSCAASGLIFGYYAMGWYRQAPGKERELVGAITSSGTSTYYADSVKGRFTISRDNAKNTVYLQMNSLKPEDTAVYYCAAQYIGKKRFNYWGQGTQVTVSS', 'high polyreactivity'),
  ('QGQLVESGGGLVQAGGSLRLSCAASGFSYGFYAMGWYRQAPGKERELVASNSNGDSTNYADSVKGRFTISRDNAKNTVYLQMNSLKPEDTAVYYCATYGGYNPSPLYWGQGTQVTVSS', 'high polyreactivity'),
  ('QVQLVESGGGLVQAGGSLRLSCADSGRTFTRYAMGWYRQAPGKERELVAAISYIGGGTYYADSVKGRFTISRDNAKNTVYLQMNSLKPEDTAVYYCAGYSRQAEYEYWGQGTQVTVSS', 'high polyreactivity'),
  ('QVQLVESGGGLVQAGGSLRLSCAASGSTFGYYAMRWSRQAPGKERELVAAISGSGGSTYYADSVKGRFTISRDNAKNTVYLQMNSLKQEDTAVYYCATSWAGSEYYYWGQGTQVTVSS', 'high polyreactivity');

====

Assay: yeast display, Sf9 membrane polyspecificity reagent, FACS + sequencing; frameworks hold sequencing errors
MEASURED METRIC: polyreactivity (PSR sort gate)

INSERT INTO results (sequence_entry, result) VALUES
  ('QVQLVESGGGLVQAGGSLRLSCAASGITFRFYAMGWYRPAPGKEREFVAAISSRGGRTYYADSVKGRFTISRDNATNTVYLQMNSLKPEDTAVYYCAADFYYRTVATVTSVARYDYWGQGTQVTVSS', 'high polyreactivity'),
  ('QVQLVESGGGLVQAGGSLRLSCAASGSIFTYYAMGWYRQAPGKERELVAAINSGGRTNYADSVKGRFTISRDNAKNTVYLQMNSLKPEDTAVYYCAKYGVLQYGYWGQGTQVTVSS', 'low polyreactivity'),
  ('QVQIVESGGGLVQAGGSLRLSCAASGRIFTVYGKGWYRQAPGKERELVAAISWSGGGTYYADSVKGRFTISRDNAQNTVYLQKNSLKPDDTAVYYCNADRQYTWSLVFFSSEYDYWGQGTQVTVSS', 'low polyreactivity'),
  ('QVQLVESGGGLVQAGGSLRLTCAASGRIFAHYAMGWYRPAPGKERELVAAISSGGSTYYADSVKGRFTISRDNAKNTVYLLMNSLKPEDTAVYYCNKRPVRRKYDYWGQGTQVTVSS', 'low polyreactivity'),
  ('QVQLVESGGGLVQAGGSLRLSCAASGSMFANNAMGWYRQAPGKERELVAAITSGGNTDNADSVKGRFTISRDNAKYTVYLQMNSLKPEDTAVYYCAAERPPYGYLVVGYVSTQYYYWGQGTQVTVSS', 'low polyreactivity'),
  ('QVQLVESGGGLVQAGGSLRLSCAASGRTFQVYAMGWYRQAPGKERELVAAISLTGGGTYYADSVKGRFTISRDNAKNTVYLQMNSLKPEDTEVYYCAVRRRTHLGFLYEYWGQGTQVTVSS', 'high polyreactivity'),
  ('QVQHVESGGGLVQAGGSLRLSCAASGRTFYKNTMGWYRQAPGKERELVAGISQRGGRTYYADSVKGRFTISRDNAKNTVYLQMNSLEPEDTAVYYCNKRRAAGGFPFDYWGQGTQVTVSS', 'high polyreactivity'),
  ('QVQLVESGGGLVQAGGSLRLSCAASGSIFIVYAMGWYRQAPGKERELVAAISWSGGSTYYADSVKGRFTISRDNAKNTVYLQMNSLNPEDTAVYYCDAKYTLPFRDVKYYSWGQGTQVTVSS', 'high polyreactivity'),
  ('QVQLVESGGGLVQARGSLRLSCAASGRTISYNVMGWYRQAPGKERELVAAITWTGGSTYYADSVKGRFTISRDNAKNTVYLLMNSLKPEDTAVYYCNAAKPYAYWVPNDYWGQGTQVTVSS', 'low polyreactivity'),
  ('QVQLVESGGRLVQAGGSLRLSCAASGSIFGWYAMGWYRQAPGKESEFVASISVTAGSTYYADSVKWRFTISRDNAKNTVYLQMNSLKPEDTAVFYCAADDYTADAVQRFYYWGQGTQVTVSS', 'low polyreactivity'),
  ('QVQLVESGGGLVQAGGSLRLSSADSGRTFRYYSMGWYRQAPGKERELVAAISSSGASTYYADSVKGRFTISRDYAKNTVYLQMNSLKPEDTAVYYCRSGILFYSRYDYWGQGTQVTVSS', 'low polyreactivity');

====

Test: yeast display, Sf9 membrane polyspecificity reagent, FACS + sequencing; frameworks hold sequencing errors
MEASURED METRIC: polyreactivity (PSR sort gate)

INSERT INTO measurements (sequence_entry, result) VALUES
  ('QVQLVESGGGLVQAGGSLRLSCAASGRTFYDYARGWYRQGPGKERELVAAITSGGSTNYADSVKGRFTISRDNAKNTVYLQMNSLKPEDTAVYYCAADDCYVWGFDMNYWGQGTQVTVSS', 'high polyreactivity'),
  ('QVQLVESGGGLVQAGGSLRLSCAASGRTFLINAMGWYRQAPGKEREMVAAITQSGGSTYYADSVKGRFTISRDNAKYTVYLQMNSLKPEDTAVYNCNATPDSVRWDYALSVVRYEYWGQGTQVTVSS', 'low polyreactivity'),
  ('QVQLVESGGGLVQAGGSLRLSCAASGFTLGTYAMGWYRQAPGKERELVAAISRGGGITYYADSVKGRFTISRDNAKNTVYLQMISLKPEDTAVYDCAADWRYWRWAFDYWGQGTQVTVSS', 'high polyreactivity'),
  ('QVKLEESAGGLVQSGGSLRISCAASGSTLVSNAMGWYRQAPGQERELVADNSLSGGSTYYADSVKGRFTISRDYAKNTVYLQMNSLKPEDTEVYYCARVAPSSGVRWYYYWGQGTQVTVSS', 'high polyreactivity'),
  ('QVQLVESGGGLVQAGGRLRLSSAASGFIFWYYAMGWYRQEPGKERELVAAITSGGNTNYADSVKGRFTISRDNAKNTVYLQMNSLKPEDTAVYYCATGRASGREHDSWGQGTQVTVSS', 'low polyreactivity');

====

Assay: yeast display, Sf9 membrane polyspecificity reagent, FACS + sequencing; frameworks hold sequencing errors
MEASURED METRIC: polyreactivity (PSR sort gate)

INSERT INTO assay_data (sequence_entry, result) VALUES
  ('QVQLVESGGGLVQAGGSLRLSCAASGSTLSQNAMGWYRQAPGKEREFVADISGSGDSTYYADSVKGRFTISRDNAKNTVYLQMNSLKPEDTAVYYCATPSPHVGLKWEYDYWGQVTQVTVSS', 'low polyreactivity'),
  ('QVQLVESGGGLVQAGGSLRLSCAASGGIFSENAMGWYRQAPGKERELVAVITTSGGSTYYADSVKGRFTISRDNAKNTVYLQMNSLKPEDTAVYYCAADVLSWEYDYWGQGTQVTVSS', 'low polyreactivity'),
  ('QVQLVESGGGLVQAGGSLRLSCAASGSTFGRYAMGWYRQAPGKERELVAAITRGGSTNYADSVKGRFTISRDNAKNTVYLPMNSLKPEDTAVYYCAADKPGIFSRFDYWGQGTQVTVSS', 'low polyreactivity');
